# credit: ChEMBL document CHEMBL4177676

- STUDY_TARGET: Falcipain 2 (Plasmodium falciparum)
- Sequence (whole entry): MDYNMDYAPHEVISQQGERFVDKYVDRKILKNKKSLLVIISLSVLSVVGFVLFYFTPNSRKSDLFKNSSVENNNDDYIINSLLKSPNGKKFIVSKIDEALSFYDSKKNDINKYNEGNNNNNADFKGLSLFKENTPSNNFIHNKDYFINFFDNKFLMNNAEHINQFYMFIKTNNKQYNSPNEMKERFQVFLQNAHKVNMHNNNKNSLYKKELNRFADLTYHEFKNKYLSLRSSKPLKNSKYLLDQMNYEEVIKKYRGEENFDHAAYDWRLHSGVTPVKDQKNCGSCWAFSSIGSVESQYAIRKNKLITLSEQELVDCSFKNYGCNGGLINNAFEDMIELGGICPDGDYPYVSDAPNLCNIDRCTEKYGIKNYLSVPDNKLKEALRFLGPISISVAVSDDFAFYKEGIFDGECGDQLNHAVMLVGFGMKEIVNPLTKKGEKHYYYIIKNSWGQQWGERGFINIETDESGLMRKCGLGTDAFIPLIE
- EXPERIMENT_SUMMARY: Inhibition of Plasmodium falciparum FP2 at 10 uM using Z-Leu-Arg-AMC as substrate preincubated for 30 min followed by substrate addition measured after 30 mins by spectrofluorimetric method
REPORTED_ENDPOINT: inhibition (%)
// return numeric value only (unit: %, not printed)

COMPOUND | inhibition (%)
Nc1nc(N)c2cc(NCc3ccc(CCNC(=O)c4ccc(C(F)(F)F)cc4)cc3)ccc2n1 | 21.5
Nc1nc(N)c2cc(NCc3ccc(CCNC(=O)c4ccc5c(c4)OCO5)cc3)ccc2n1 | 59.2
COc1ccc(C(=O)NCCc2ccc(CNc3ccc4nc(N)nc(N)c4c3)cc2)cc1Cl | 37.6
Nc1nc(N)c2cc(NCc3ccc(CCNC(=O)c4ccc(Cl)cc4F)cc3)ccc2n1 | 62.4
Nc1nc(N)c2cc(NCc3ccc(CCNC(=O)C4CCCCC4)cc3)ccc2n1 | 66.6

Ask | Could you tell me which inhibition is on file for CCc1nnc(NC(=O)CCc2ccc(S(=O)(=O)Nc3ccc(F)cc3)cc2)s1 ?
Reply | 64.7

Ask | GET /values?readout=inhibition&item= Nc1nc(N)c2cc(NCc3ccc(CCNC(=O)c4ccc5ccccc5c4)cc3)ccc2n1
Reply | 46.4

Ask | What does the data say about its inhibition? Entry: Nc1nc(N)c2cc(NCc3ccc(CCNC(=O)c4ccco4)cc3)ccc2n1
Reply | 28.9
